- ASSAY_OVERVIEW: Inhibition of pig coronary artery cAMP-specific phosphodiesterase
- Set-up: species or system Sus scrofa
- ASSAY_CONDITIONS: read-out: I50
pIC50: −log10 of the molar value.
Assign True to entries whose pIC50 meets or exceeds 4; assign False to the rest.

These solved cases illustrate the format of a correct answer.
[
  {
    "SUBSTANCE_SMILES": "CC(C)CCn1c(=O)c2[nH]cnc2n(CC(C)C)c1=O",
    "CAT": "True"
  },
  {
    "SUBSTANCE_SMILES": "COCc1nc2c([nH]1)c(=O)n(C)c(=O)n2CC(C)C",
    "CAT": "False"
  }
]

Decide: is the reported value of pIC50 for CC(C)Cn1c(=O)n(C)c(=O)c2[nH]c(CO)nc21 equal to or greater than 4?
False

Decide: is the reported value of pIC50 for C=CCn1c(=O)n(C)c(=O)c2nc[nH]c21 equal to or greater than 4?
True

Decide: is the reported value of pIC50 for C=C(C)Cn1c(=O)n(C)c(=O)c2nc[nH]c21 equal to or greater than 4?
True

----------
- Organism: Sus scrofa
- ASSAY_OVERVIEW: Inhibition of pig coronary artery phosphodiesterase peak I cGMP specific and calmodulin sensitive at 100 uM
OUTCOME_MEASURE: inhibition
Answer with the value and then the unit.

Example results:
[
  {
    "SUBSTANCE_SMILES": "Cn1c(=O)c2nc[nH]c2n(CCO)c1=O",
    "RESULT": "30%"
  },
  {
    "SUBSTANCE_SMILES": "CC(=O)OCCn1c(=O)n(C)c(=O)c2nc[nH]c21",
    "RESULT": "43%"
  },
  {
    "SUBSTANCE_SMILES": "CC(C)Cn1c(=O)n(C)c(=O)c2[nH]nnc21",
    "RESULT": "35%"
  },
  {
    "SUBSTANCE_SMILES": "C=C(C)Cn1c(=O)n(CCC(C)C)c(=O)c2nc[nH]c21",
    "RESULT": "38%"
  }
]

We now examine a further compound.
Given COC(=O)Cn1c(=O)c2nc[nH]c2n(CC(C)C)c1=O , respond with its inhibition.
26%

----------
- Organism: Sus scrofa
- ASSAY_OVERVIEW: Inhibition of Peak II phosphodiesterase from pig coronary arteries at 100 uM
Assign Satisfied to entries whose inhibition meets or exceeds 30%; assign Not satisfied to the rest.

These solved cases illustrate the format of a correct answer.
[
  {
    "SUBSTANCE_SMILES": "CC(C)Cn1c(=O)n(CC(=O)O)c(=O)c2[nH]cnc21",
    "CAT": "Not satisfied"
  },
  {
    "SUBSTANCE_SMILES": "CC(C)Cn1c(=O)n(C)c(=O)c2[nH]c(N(C)C)nc21",
    "CAT": "Satisfied"
  },
  {
    "SUBSTANCE_SMILES": "C=C(C)Cn1c(=O)n(CCC(C)C)c(=O)c2nc[nH]c21",
    "CAT": "Satisfied"
  },
  {
    "SUBSTANCE_SMILES": "CC(C)Cn1c(=O)n(C)c(=O)c2[nH]c(CCC(=O)O)nc21",
    "CAT": "Not satisfied"
  },
  {
    "SUBSTANCE_SMILES": "CC(=O)OCCn1c(=O)n(C)c(=O)c2nc[nH]c21",
    "CAT": "Not satisfied"
  }
]

// next entry
Decide: is the reported value of inhibition for COC(=O)Cn1c(=O)c2nc[nH]c2n(CC(C)C)c1=O equal to or greater than 30%?
Satisfied

----------
- ASSAY_OVERVIEW: Inhibition of Peak I phosphodiesterase from pig coronary arteries
- Design: species or system Sus scrofa
- ASSAY_CONDITIONS: read-out: I50
OUTCOME_MEASURE: IC50 (µM)
Please state the figure in µM; there is no need to write the unit.

Example results:
[
  {
    "SUBSTANCE_SMILES": "CC(C)CCn1c(=O)c2[nH]cnc2n(CC(C)C)c1=O",
    "IC50 (µM)": 86
  },
  {
    "SUBSTANCE_SMILES": "CC(C)Cn1c(=O)n(C)c(=O)c2[nH]c(CCC(=O)O)nc21",
    "IC50 (µM)": 45
  },
  {
    "SUBSTANCE_SMILES": "CC(C)Cn1c(=O)n(C)c(=O)c2[nH]c(N(C)C)nc21",
    "IC50 (µM)": 1.6
  },
  {
    "SUBSTANCE_SMILES": "CC(C)Cn1c(=O)n(C)c(=O)c2[nH]c(CCCO)nc21",
    "IC50 (µM)": 11
  },
  {
    "SUBSTANCE_SMILES": "CC(C)=CCc1nc2c([nH]1)c(=O)n(C)c(=O)n2CC(C)C",
    "IC50 (µM)": 6.3
  }
]

We now examine a further compound.
Given COCc1nc2c([nH]1)c(=O)n(C)c(=O)n2CC(C)C , respond with its IC50.
5.2

----------
- ASSAY_OVERVIEW: Inhibition of Peak I phosphodiesterase from pig coronary arteries
- Set-up: species or system Sus scrofa
- ASSAY_CONDITIONS: read-out: I50
OUTCOME_MEASURE: log10 of IC50 (log10 of the value in µM)
In our notation, the value equals log10 of IC50 in µM.

Example results:
[
  {
    "COMPOUND": "CC(C)Cn1c(=O)n(C)c(=O)c2[nH]c(CCl)nc21",
    "log10 of IC50": 0.95
  },
  {
    "COMPOUND": "Cn1c(=O)c2nc[nH]c2n(C)c1=O [THEOPHYLLINE]",
    "log10 of IC50": 2.00
  }
]

Given C=C(C)Cn1c(=O)n(C)c(=O)c2nc[nH]c21 , respond with its log10 of IC50.
1.00

Given COC(=O)CCc1nc2c(=O)n(C)c(=O)n(CC(C)C)c2[nH]1 , respond with its log10 of IC50.
0.99

Given CC(C)Cn1c(=O)n(C)c(=O)c2[nH]c(CO)nc21 , respond with its log10 of IC50.
0.97

Given C=CCn1c(=O)n(C)c(=O)c2nc[nH]c21 , respond with its log10 of IC50.
1.40

Given CNc1nc2c(=O)n(C)c(=O)n(CC(C)C)c2[nH]1 , respond with its log10 of IC50.
0.08

----------
# inhibition per record follows
- Organism: Sus scrofa
- ASSAY_OVERVIEW: Inhibition of Peak II phosphodiesterase from pig coronary arteries at 100 uM
Please state the figure in %; there is no need to write the unit.

Example results:
[
  {
    "SUBSTANCE_SMILES": "Cn1c(=O)c2nc[nH]c2n(CCO)c1=O",
    "OUTCOME_MEASURE": "inhibition",
    "RESULT_NUMBER": 23
  },
  {
    "SUBSTANCE_SMILES": "CNc1nc2c(=O)n(C)c(=O)n(CC(C)C)c2[nH]1",
    "OUTCOME_MEASURE": "inhibition",
    "RESULT_NUMBER": 39
  },
  {
    "SUBSTANCE_SMILES": "COC(=O)CCc1nc2c(=O)n(C)c(=O)n(CC(C)C)c2[nH]1",
    "OUTCOME_MEASURE": "inhibition",
    "RESULT_NUMBER": 30
  },
  {
    "SUBSTANCE_SMILES": "CC(C)=CCc1nc2c([nH]1)c(=O)n(C)c(=O)n2CC(C)C",
    "OUTCOME_MEASURE": "inhibition",
    "RESULT_NUMBER": 21
  }
]

Given CC(C)Cn1c(=O)n(C)c(=O)c2[nH]c(CCCO)nc21 , respond with its inhibition.
29

Given CC(C)Cn1c(=O)n(C)c(=O)c2[nH]c(CCl)nc21 , respond with its inhibition.
28
